# targetDesc: T1, human chemokine (C-C motif) receptor 8 (CCR8) (human, UniProt P51685 1-355)
# T1 construct: On human peripheral blood lymphocytes / PBMC (native) or on human CCR8 GFP-transfected Ba/F3 cells; also called hCCR8; human CCR8
# T1 sequence (P51685 whole entry): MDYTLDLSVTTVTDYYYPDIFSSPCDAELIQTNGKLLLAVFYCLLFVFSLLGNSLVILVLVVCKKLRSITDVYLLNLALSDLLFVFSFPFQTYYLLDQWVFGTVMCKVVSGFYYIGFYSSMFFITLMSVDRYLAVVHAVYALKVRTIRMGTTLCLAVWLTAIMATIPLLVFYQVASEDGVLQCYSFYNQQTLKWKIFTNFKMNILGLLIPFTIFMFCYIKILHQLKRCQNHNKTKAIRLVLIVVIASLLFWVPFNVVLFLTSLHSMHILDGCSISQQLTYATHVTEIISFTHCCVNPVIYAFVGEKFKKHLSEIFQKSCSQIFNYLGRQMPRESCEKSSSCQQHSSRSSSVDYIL
# experiment: flow cytometry blocking, PBMC CCR8+ CD4+ cells; competitor PE-AB5 (its MFI is read)
Could you please report measured % Blocking for the items listed next?
Please state the figure in %; there is no need to write the unit.

Requested read-out: % Blocking. Entry: AB5 (antibody, V domains shown, Hybridoma monoclonal; also called antibody 5; clone 5) VH: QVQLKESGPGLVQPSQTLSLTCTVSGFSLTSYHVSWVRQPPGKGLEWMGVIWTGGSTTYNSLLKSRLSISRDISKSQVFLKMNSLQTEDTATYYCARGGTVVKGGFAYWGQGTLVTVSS VL: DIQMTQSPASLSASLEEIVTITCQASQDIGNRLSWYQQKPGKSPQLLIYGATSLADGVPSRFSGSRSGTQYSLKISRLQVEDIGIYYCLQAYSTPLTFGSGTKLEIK
44.9

Requested read-out: % Blocking. Entry: AB10 (antibody, V domains shown, Hybridoma monoclonal; also called antibody 10; clone 10) VH: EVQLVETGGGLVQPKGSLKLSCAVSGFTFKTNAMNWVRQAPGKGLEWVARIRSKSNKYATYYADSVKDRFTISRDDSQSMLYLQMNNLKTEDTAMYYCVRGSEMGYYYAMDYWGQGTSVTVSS VL: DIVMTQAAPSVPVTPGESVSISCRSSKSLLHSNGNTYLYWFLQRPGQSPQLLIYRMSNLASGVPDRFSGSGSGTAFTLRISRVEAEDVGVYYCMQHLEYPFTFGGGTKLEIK
-32.8
